Data credit: ChEMBL document CHEMBL4390648

# System: Candida albicans
# Protocol text: Inhibition of Candida albicans AHAS catalytic subunit at 10 uM using pyruvate as substrate measured after 30 mins by colorimetric method relative to control
Assay readout: inhibition (%)
Enter your answer as a number in %; do not include the unit.

Smiles structure	System under test	inhibition / %
COc1nc(OC)nc(Oc2cccc(Br)c2)n1	Candida albicans	10.6
COc1nc(OC)nc(Sc2ccc(C(F)(F)F)cc2C#N)n1	Candida albicans	0

Entry `COc1nc(OC)nc(Sc2ccc(C(=O)O)cc2Br)n1` ; inhibition = 50.1

// field: inhibition; key: `COc1cc(OC)nc(Sc2ccc(C(=O)O)cc2C(=O)O)n1` ; value = 8

---

Catalogue of molecules with associated inhibition
# System: Arabidopsis thaliana
# Protocol text: Inhibition of Arabidopsis thaliana AHAS catalytic subunit using pyruvate as substrate at 10 uM measured after 30 mins by colorimetric method relative to control
Output spec: scalar in %, unitless text.

Example entries and their recorded answers appear below.
Molecule	inhibition / %
COc1cc(OC)nc(Sc2ccc(F)cc2C(=O)O)n1	70.1
COc1cc(OC)nc(Sc2ccc(Br)cc2C(=O)O)n1	61
COc1cc(OC)nc(Sc2cc(C(F)(F)F)ccc2C(=O)O)n1	51.8
COc1cc(OC)nc(Sc2cccc(Cl)c2C(=O)O)n1 [PYRITHIOBAC]	96
COc1cc(OC)nc(Sc2ccc(C(=O)O)cc2Cl)n1	31.4
COc1cc(OC)nc(Sc2ccc(C(=O)O)cc2Br)n1	48.9

# next molecule below
# value of inhibition, Arabidopsis thaliana, item `COc1nc(OC)nc(Sc2ccc(C#N)cc2Br)n1` = 53.1

---

# System: Candida albicans
# Protocol text: Inhibition of Candida albicans AHAS catalytic subunit at 100 uM using pyruvate as substrate measured after 30 mins by colorimetric method relative to control
Assay readout: inhibition

Example compounds with recorded inhibition:
Smiles structure	inhibition
COc1cc(OC)nc(Sc2ccc(C#N)c(C(F)(F)F)c2)n1	51.4%
COc1nc(OC)nc(Oc2cccc(Br)c2)n1	18.3%
COc1cc(OC)nc(Sc2ccc(C(=O)O)cc2Cl)n1	85%

Now examine the next entry.
`COc1nc(OC)nc(Sc2ccc(F)cc2C(=O)O)n1` has a reported inhibition of 77.6%

---

# Tested on: Candida albicans
# Protocol text: Inhibition of Candida albicans AHAS catalytic subunit at 100 uM using pyruvate as substrate measured after 30 mins by colorimetric method relative to control
Param threshold (70%) applies to inhibition; output T when value >= threshold, F when value < threshold.

Example results:
Smiles structure	Qualitative label
COc1nc(OC)nc(Sc2ccc(C#N)cc2C(F)(F)F)n1	F
COc1nc(OC)nc(Sc2ccc(C(F)(F)F)cc2C#N)n1	F

Next, consider the following compound.
stdin: Can `COc1nc(OC)nc(Sc2ccc(Cl)cc2C#N)n1` be said to have inhibition at or above 70%?
stdout: T

---

# Tested on: Sclerotinia sclerotiorum
# Protocol text: Antifungal activity against Sclerotinia sclerotiorum assessed as reduction in growth at 50 mg/l by mycelium growth rate method relative to control
# Type: functional
Consider the following molecules and their measured inhibition at 50 µg/mL readings.
Your answer is read as %, so omit the unit and give the number.

Worked examples follow.
Smiles structure	Assay readout	Units text	Measured result
COc1nc(OC)nc(Oc2cccc(I)c2)n1	inhibition at 50 µg/mL	%	66.7
COc1cc(OC)nc(Sc2ccc(C(=O)O)cc2Cl)n1	inhibition at 50 µg/mL	%	83.3
COc1cc(OC)nc(Sc2cc(C(F)(F)F)ccc2C#N)n1	inhibition at 50 µg/mL	%	11.1

Per the record, `COc1nc(OC)nc(Oc2cccc(Br)c2)n1` has inhibition at 50 µg/mL of 61.1

Sure, the documented inhibition at 50 µg/mL for `COc1nc(OC)nc(Sc2ccc(Cl)cc2C(=O)O)n1` is 61.1
